# target_of_assay: recombinant human FLAP protein (Homo sapiens)
# Construct: made in house; host or cells: Sf9 insect cells (100,000×g membrane pellet used)
# Sequence (P20292 1-161): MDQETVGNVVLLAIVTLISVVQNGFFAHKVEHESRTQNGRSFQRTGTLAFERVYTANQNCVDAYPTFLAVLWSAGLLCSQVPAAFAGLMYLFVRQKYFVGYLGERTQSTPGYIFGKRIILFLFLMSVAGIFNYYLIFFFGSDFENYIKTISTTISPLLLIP
# assay_info: FLAP binding assay (SPA, displacement of [125I]L-691,831)
# measurement_context: membranes of sf9 cells expressing recombinant human FLAP; [125I]L-691,831 probe; read-out: FLAP binding IC50
pIC50: −log10 of the molar value.
measured_parameter: pIC50

Cc1cc(-c2ccc([C@](C)(c3noc(-c4cnn(CC(=O)N(C)C)c4)n3)C3CC3)cc2)cnc1N    8.66
CC(C)[C@](C)(c1ccc(-c2cnc(N)nc2)cc1)c1noc(-c2ccnn2C)n1    8.80
CNc1ccc(-c2ccc([C@](C)(c3noc(-c4cnn(CC(=O)N(C)C)c4)n3)C3CC3)cc2)cn1    8.52

P. Cn1cc(-c2nc([C@@](C)(c3ccc(-c4ccc(N)nc4)cc3)C3CC3)no2)cn1
Q. CC(C)C(C)(c1ccc(-c2cnc(N)nc2)cc1)c1noc(C2CC2)n1 (stereo not shown)
R. Cc1ccc(-c2nc(C(C)(c3ccc(-c4cnc(N)nc4)cc3)C(C)C)no2)cn1 (stereo not shown)
S. CC(C)C(c1ccc(-c2cnc(N)nc2)cc1)c1noc(-c2cnn(C)c2)n1 (stereo not shown)
Order the 4 molecules from highest to lowest pIC50. API: response body holds the labels in the requested order. R, P, S, Q
(R: 8.80, P: 8.48, S: 8.21, Q: 7.82)

###

# target_of_assay: recombinant human FLAP protein (Homo sapiens)
# Construct: made in house; host or cells: Sf9 insect cells (100,000×g membrane pellet used)
# assay_info: FLAP binding assay (SPA, displacement of [125I]L-691,831)
# measurement_context: membranes of sf9 cells expressing recombinant human FLAP; [125I]L-691,831 probe; read-out: FLAP binding IC50
# Method: Assessment of Biological Properties 1. Binding Assay Compounds are assessed for the ability to bind to FLAP in a binding assay that measures compound-specific displacement of an iodinated (^125I) FLAP inhibitor via a Scintillation Proximity Assay format (adapted from S. Charleson et al., Mol. Pharmacol., 1992, 41, 873-879). Cell pellets produced from sf9 insect cells expressing recombinant human FLAP protein are resuspended in buffer A [15 mM Tris-HCl (pH 7.5), 2 mM MgCl2, 0.3 mM EDTA, 1 mM PMSF]. […]
measured_parameter: IC50 (nM)

Some compounds with recorded IC50:
CC(c1ccc(-c2cnc(N)nc2)cc1)(c1noc(N2CCC[C@@H](O)C2)n1)C1CC1 (stereo partly shown) [Example 287]    7
C[C@@](c1ccc(-c2cnc(N)nc2)cc1)(c1noc(-c2cnn(CCN3CCCC3)c2)n1)C1CC1 [Example 215]    3.6
CC(c1ccc(-c2cnc(N)nc2)cc1)(c1noc(-c2cncn2C2COC2)n1)C1CC1 (stereo not shown) [Example 206]    23
CN(c1nc(C(C)(c2ccc(-c3cnc(N)nc3)cc2)C2CC2)no1)C1CCC(O)CC1 (stereo not shown) [Example 297]    8.5
Cc1nc(-c2ccc([C@](C)(c3noc(-c4cnn(CC(=O)N(C)C)c4)n3)C3CC3)cc2)cnc1N [Example 177]    8.9
COCCn1cc(-c2nc([C@](C)(c3ccc(-c4cnc(N)nc4)cc3)C3CC3)no2)cn1 [Example 53]    27
CN(C)C(=O)Cn1cc(-c2nc(C(C)(c3ccc(-c4cnc(N)nc4F)cc3)C3CC3)no2)cn1 (stereo not shown) [Example 275]    11
Cc1nc(-c2ccc([C@](C)(c3noc(-c4cnn(CC(C)(C)O)c4)n3)C3CC3)cc2)cnc1N [Example 180]    2.9

1. COC1CCN(c2nc(C(C)(c3ccc(-c4cnc(N)nc4)cc3)C(C)C)no2)CC1 (stereo not shown) [Example 270]
2. CC(C)C(C)(c1ccc(-c2cnc(N)nc2)cc1)c1noc(-c2cccc(=O)n2C)n1 (stereo not shown) [Example 165]
3. Cc1nc(-c2ccc([C@](C)(c3noc(-c4cnn(C)c4)n3)C3CC3)cc2)cnc1N [Example 187]
4. CN(C)C(=O)Cn1cc(-c2nc(C(C)(c3ccc(-c4ccc(N)nc4F)cc3)C3CC3)no2)cn1 (stereo not shown) [Example 278]
Ordering: ascending IC50. API: response body holds the labels in the requested order. 2, 4, 1, 3
(2: 2.1 nM, 4: 5 nM, 1: 9.8 nM, 3: 17 nM)

###

# target_of_assay: recombinant human FLAP protein (Homo sapiens)
# Construct: made in house; host or cells: Sf9 insect cells (100,000×g membrane pellet used)
# assay_info: FLAP binding assay (SPA, displacement of [125I]L-691,831)
# measurement_context: membranes of sf9 cells expressing recombinant human FLAP; [125I]L-691,831 probe; read-out: FLAP binding IC50
pIC50: −log10 of the molar value.
measured_parameter: pIC50

A. CC(C)C(C)(c1ccc(-c2cnc(N)nc2)cc1)c1noc(-c2ccc(N3CCOCC3)nc2)n1 (stereo not shown)
B. COc1cncc(-c2ccc(C(C)(c3noc(-c4cnn(C)c4)n3)C3CC3)cc2)c1 (stereo not shown)
Given A and given B , which shows the smaller recorded pIC50? Response format: the label of the selected entry. B

###

# target_of_assay: recombinant human FLAP protein (Homo sapiens, UniProt P20292)
# Construct: made in house; host or cells: Sf9 insect cells (100,000×g membrane pellet used)
# assay_info: FLAP binding assay (SPA, displacement of [125I]L-691,831)
# measurement_context: membranes of sf9 cells expressing recombinant human FLAP; [125I]L-691,831 probe; read-out: FLAP binding IC50
measured_parameter: IC50 (nM)

Cn1cc(-c2nc([C@@](C)(c3ccc(-c4cnc(N)nc4)cc3)C3CC3)no2)cn1    1.3
CN(C)C(=O)Cn1cc(-c2nc([C@@](C)(c3ccc(-c4cnc(N)nc4F)cc3)C3CC3)no2)cn1    3.5
CN(C)CCn1cc(-c2nc([C@@](C)(c3ccc(-c4cnc(N)nc4)cc3)C3CC3)no2)cn1    3.1
CC(c1ccc(-c2cnc(N)nc2)cc1)(c1noc(N2CCC(S(C)(=O)=O)CC2)n1)C1CC1 (centres unmarked)    16
COc1cncc(-c2nc(C(C)(c3ccc(-c4cnc(N)nc4)cc3)C(C)C)no2)c1 (centres unmarked)    3.6

a. Cn1cc(-c2nc(C(C)(c3ccc(-c4cnc5[nH]ccc5c4)cc3)C3CC3)no2)cn1 (centres unmarked)
b. CC(C)C(C)(c1ccc(-c2cnc(N)nc2)cc1)c1noc(-c2cccnc2)n1 (centres unmarked)
Given a and given b , which shows the smaller recorded IC50? Response format: the label of the selected entry. b
(b: 1.7 nM, a: 3.8 nM)

###

# target_of_assay: recombinant human FLAP protein (Homo sapiens)
# Construct: made in house; host or cells: Sf9 insect cells (100,000×g membrane pellet used)
# assay_info: FLAP binding assay (SPA, displacement of [125I]L-691,831)
# measurement_context: membranes of sf9 cells expressing recombinant human FLAP; [125I]L-691,831 probe; read-out: FLAP binding IC50
measured_parameter: IC50 (nM)

COc1ncc(-c2nc(C(C)(c3ccc(-c4cnc(N)nc4)cc3)C(C)C)no2)cn1 (stereo not shown)    1.9

P. CC(C)C(C)(c1ccc(-c2cnc(N)nc2)cc1)c1noc(NCC2CCOCC2)n1 (stereo not shown)
Q. CC(C)C(C)(c1ccc(-c2cnc(N)nc2)cc1)c1noc(-c2cncnc2)n1 (stereo not shown)
R. CC(C)C(C)(c1ccc(-c2cnc(N)nc2)cc1)c1noc(-c2ccc(=O)[nH]c2)n1 (stereo not shown)
Ordering: ascending IC50. API: response body holds the labels in the requested order. Q, R, P
(Q: 2 nM, R: 2.9 nM, P: 13 nM)

###

# target_of_assay: recombinant human FLAP protein (Homo sapiens, UniProt P20292)
# Construct: made in house; host or cells: Sf9 insect cells (100,000×g membrane pellet used)
# assay_info: FLAP binding assay (SPA, displacement of [125I]L-691,831)
# measurement_context: membranes of sf9 cells expressing recombinant human FLAP; [125I]L-691,831 probe; read-out: FLAP binding IC50
pIC50: −log10 of the molar value.
measured_parameter: pIC50

Some compounds with recorded pIC50:
CC(c1ccc(-c2cnc(N)nc2)cc1)(c1noc(N2CCN(CCO)CC2)n1)C1CC1 (stereo not shown)    7.82
CC(C)C(C)(c1ccc(-c2cnc(N)nc2)cc1)c1noc(N2CCN(C3CC3)CC2)n1 (stereo not shown)    7.80

I. CC(c1ccc(-c2cnc(N)nc2)cc1)(c1noc(N2CCC[C@H](O)C2)n1)C1CC1 (stereo partly shown)
II. C[C@](c1ccc(-c2ccc(N)nc2)cc1)(c1noc(-c2cnc(N3CCNCC3)cn2)n1)C1CC1
Given I and given II , which shows the smaller recorded pIC50? Response format: the label of the selected entry. II
